- test details: In vitro microsomal metabolic stability, human liver microsomes
- Assay type: in vitro ADME
- conditions used: human, human liver microsomes, pH 7.2
measurement type: CLint scaled at 1 µM (mL/min/kg)

# compound, quantity unit, numeric readout
rows = [
    ("CO[C@@H]1CC(C[C@@H](C)[C@@H]2CC[C@H](C)/C=C(\\C)[C@@H](O)[C@@H](OC)C(=O)[C@H](C)C[C@H](C)/C=C/C=C/C=C(\\C)C(Nc3ccccc3)CC3CC[C@@H](C)[C@@](O)(O3)C(=O)C(=O)N3CCCC[C@H]3C(=O)O2)CC[C@H]1O (some centres unmarked)", "mL/min/kg", 80.9),
    ("CO[C@@H]1C[C@H](C[C@@H](C)[C@@H]2CC[C@H](C)/C=C(\\C)[C@@H](O)[C@@H](OC)C(=O)[C@H](C)C[C@H](C)/C=C/C=C/C=C(\\C)C(NS(=O)(=O)c3cnoc3C)C[C@@H]3CC[C@@H](C)[C@@](O)(O3)C(=O)C(=O)N3CCCCC3C(=O)O2)CC[C@H]1O (some centres unmarked)", "mL/min/kg", 182),
    ("CO[C@H]1C[C@@H]2CC[C@@H](C)[C@@](O)(O2)C(=O)C(=O)N2CCCC[C@H]2C(=O)O[C@H]([C@H](C)C[C@@H]2CC[C@@H](OCCO)[C@H](OC)C2)CC(=O)[C@H](C)/C=C(\\C)[C@@H](O)[C@@H](OC)C(=O)[C@H](C)C[C@H](C)/C=C/C=C/C=C/1C [RAD001, everolimus, reference compound]", "mL/min/kg", 112),
    ("COCCN(c1ccccc1)C1C[C@@H]2CC[C@@H](C)[C@@](O)(O2)C(=O)C(=O)N2CCCC[C@H]2C(=O)OC([C@H](C)CC2CC[C@@H](O)C(OC)C2)CC[C@H](C)/C=C(\\C)C(O)C(OC)C(=O)[C@H](C)C[C@H](C)/C=C/C=C/C=C/1C (some centres unmarked)", "mL/min/kg", 25.5),
    ("CCOc1cccc(NC2C[C@@H]3CC[C@@H](C)[C@@](O)(O3)C(=O)C(=O)N3CCCCC3C(=O)O[C@H]([C@H](C)C[C@@H]3CC[C@@H](O)[C@H](OC)C3)CC[C@H](C)/C=C(\\C)[C@@H](O)[C@@H](OC)C(=O)[C@H](C)C[C@H](C)/C=C/C=C/C=C/2C)c1 (some centres unmarked)", "mL/min/kg", 22.2),
    ("CO[C@@H]1C[C@H](C[C@@H](C)[C@@H]2CC[C@H](C)/C=C(\\C)[C@@H](O)[C@@H](OC)C(=O)[C@H](C)C[C@H](C)/C=C/C=C/C=C(\\C)C(Nc3ccc(Cl)cc3)C[C@@H]3CC[C@@H](C)[C@@](O)(O3)C(=O)C(=O)N3CCCCC3C(=O)O2)CC[C@H]1O (some centres unmarked)", "mL/min/kg", 37.8),
    ("CO[C@@H]1CC(C[C@@H](C)[C@@H]2CC[C@H](C)/C=C(\\C)[C@@H](O)[C@@H](OC)C(=O)[C@H](C)C[C@H](C)/C=C/C=C/C=C(\\C)C(Nc3cncc(C)n3)CC3CC[C@@H](C)[C@@](O)(O3)C(=O)C(=O)N3CCCC[C@H]3C(=O)O2)CC[C@H]1O (some centres unmarked)", "mL/min/kg", 47.5),
    ("CO[C@@H]1C[C@H](C[C@@H](C)[C@@H]2CC[C@H](C)/C=C(\\C)[C@@H](O)[C@@H](OC)C(=O)[C@H](C)C[C@H](C)/C=C/C=C/C=C(\\C)C(Nc3ccsc3)C[C@@H]3CC[C@@H](C)[C@@](O)(O3)C(=O)C(=O)N3CCCCC3C(=O)O2)CC[C@H]1O (some centres unmarked)", "mL/min/kg", 80.4),
]
